Data provenance: paper PMC9090415

tested-system: P. falciparum apicoplast DNA polymerase (Pf-apPOL) (Plasmodium falciparum)
assay-comment: Fluorescence-based high-throughput DNA polymerase assay (molecular beacon), primary screen and dose-response
Type: biochemical
run-parameters: DRC-1; 90'; concentration 20
reported-endpoint: % inhibition Apol 90' (%)
A number alone suffices; assume %.

Bench note: what % inhibition Apol 90' did O=C(O)C(=O)Nc1nc(-c2ccc3c(c2)OCCO3)cs1 show?
24.9603

Further, for O=[N+]([O-])/C=C/c1ccc(-c2ccc(Br)cc2)o1 ?
66.0417

Further, for O=C1CCCC2=C1C(c1ccccn1)C1=C(CCCC1=O)O2 ?
43.923

Further, for O=C(NNC(=O)c1ccc(Cl)cc1)C(=O)NNC(=O)c1ccc(Cl)cc1 ?
54.9619

###

tested-system: P. falciparum apicoplast DNA polymerase (Pf-apPOL) (Plasmodium falciparum)
assay-comment: Fluorescence-based high-throughput DNA polymerase assay (molecular beacon), primary screen and dose-response
Assay type: biochemical
run-parameters: DRC-2, 5', concentration 40 (unit not given)
reported-endpoint: % inhibition Apo pol 5' (%)
A number alone suffices; assume %.

Answered examples (3):
1) Cc1cccc(CC(=O)N2CCc3c(nc4cc(-c5ccccc5)[nH]n4c3=O)C2)c1 = 48
2) CCOc1cccc2cc(C(=O)Nc3nnc(-c4ccno4)o3)oc12 = 45
3) O=C(O)c1ccc(-c2nc3cc(-c4ccc5nc(-c6ccc(C(=O)O)cc6)[nH]c5c4)ccc3[nH]2)cc1 = 37

Bench note: what % inhibition Apo pol 5' did COc1cc(NC(=O)c2ccccc2)c(OC)cc1NC(=O)Cc1cccs1 show?
34

Further, for Nc1c(S(=O)(=O)O)cc(Nc2ccccc2)c2c1C(=O)c1ccccc1C2=O ?
75

Further, for O=c1[nH]c2ccc(Br)cc2c(-c2ccccc2)c1C1=NNC(c2ccco2)C1 (stereo not drawn) ?
65

###

tested-system: bacteriophage T4 DNA polymerase (Enterobacteria phage T4)
Construct: made in house
Sequence (P04415 whole entry): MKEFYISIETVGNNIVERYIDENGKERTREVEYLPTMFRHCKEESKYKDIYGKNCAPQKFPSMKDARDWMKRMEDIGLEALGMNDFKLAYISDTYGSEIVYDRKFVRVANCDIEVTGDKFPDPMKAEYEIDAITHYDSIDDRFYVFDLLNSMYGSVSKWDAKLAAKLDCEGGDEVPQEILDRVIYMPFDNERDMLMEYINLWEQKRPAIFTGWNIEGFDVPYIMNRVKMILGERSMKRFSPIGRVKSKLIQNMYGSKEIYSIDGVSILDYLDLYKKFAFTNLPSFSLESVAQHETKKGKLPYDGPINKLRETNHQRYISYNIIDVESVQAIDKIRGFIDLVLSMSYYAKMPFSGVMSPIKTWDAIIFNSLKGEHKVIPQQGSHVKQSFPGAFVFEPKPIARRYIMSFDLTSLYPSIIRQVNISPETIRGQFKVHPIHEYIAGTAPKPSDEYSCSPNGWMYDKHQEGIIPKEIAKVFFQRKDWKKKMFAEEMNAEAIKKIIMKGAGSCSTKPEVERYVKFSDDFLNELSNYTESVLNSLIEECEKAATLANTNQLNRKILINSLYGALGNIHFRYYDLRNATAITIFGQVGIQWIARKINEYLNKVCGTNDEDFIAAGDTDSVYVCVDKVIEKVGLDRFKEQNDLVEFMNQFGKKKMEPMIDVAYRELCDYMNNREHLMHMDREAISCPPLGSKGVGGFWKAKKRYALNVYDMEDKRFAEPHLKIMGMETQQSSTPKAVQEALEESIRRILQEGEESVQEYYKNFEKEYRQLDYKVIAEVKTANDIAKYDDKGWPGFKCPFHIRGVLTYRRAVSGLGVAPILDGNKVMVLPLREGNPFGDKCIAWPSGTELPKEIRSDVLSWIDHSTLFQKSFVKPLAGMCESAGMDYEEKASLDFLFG
assay-comment: Counter-screen against bacteriophage T4 DNA polymerase
Assay type: biochemical
run-parameters: DRC-2; 10'; concentration 80
Binary classification by % inhibition T4 10', with -20% as an inclusive lower bound for class 1; all other cases are class 0.

Solved cases (4 shown):
1. Cc1nc(/N=N/c2ccc(C(=O)[O-])cc2)c(COP(=O)([O-])[O-])c(C=O)c1O.[Na+].[Na+].[Na+] = class 1
2. COc1ccc(-c2n[nH]cc2Oc2ccc(Cl)cc2)c(O)c1 = class 0
3. CCOC(=O)C1=C2c3cc(OC)c(OC)cc3CC(C)(C)N2C(=O)C1=O = class 1
4. Cc1ccc(NC(=O)C2CCN(C(=O)c3cc4ccsc4[nH]3)CC2)c(Br)c1 = class 1

# ---- query compound ----
Please indicate if the recorded % inhibition T4 10' for Cc1ccccc1C(=O)N1CCc2c(nc3cc(-c4ccccc4)[nH]n3c2=O)C1 meets or exceeds -20%.
class 0

###

tested-system: P. falciparum apicoplast DNA polymerase (Pf-apPOL) (Plasmodium falciparum, UniProt Q8ILY1)
Sequence (Q8ILY1 entry or part of it): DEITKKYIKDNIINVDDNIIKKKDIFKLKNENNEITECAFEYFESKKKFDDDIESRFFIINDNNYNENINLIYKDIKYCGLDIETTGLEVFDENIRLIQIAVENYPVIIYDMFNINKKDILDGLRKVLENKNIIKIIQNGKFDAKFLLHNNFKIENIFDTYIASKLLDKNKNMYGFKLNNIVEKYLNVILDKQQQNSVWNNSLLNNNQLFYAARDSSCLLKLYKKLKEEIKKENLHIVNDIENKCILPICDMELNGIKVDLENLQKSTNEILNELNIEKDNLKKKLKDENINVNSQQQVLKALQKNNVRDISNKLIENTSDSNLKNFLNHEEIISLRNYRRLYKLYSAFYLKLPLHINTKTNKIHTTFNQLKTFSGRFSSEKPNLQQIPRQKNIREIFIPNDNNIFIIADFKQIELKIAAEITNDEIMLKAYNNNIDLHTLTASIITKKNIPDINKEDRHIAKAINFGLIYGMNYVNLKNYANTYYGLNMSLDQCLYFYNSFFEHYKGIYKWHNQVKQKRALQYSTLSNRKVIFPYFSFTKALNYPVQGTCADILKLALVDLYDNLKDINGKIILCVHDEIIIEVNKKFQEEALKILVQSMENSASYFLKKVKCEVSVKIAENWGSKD
assay-comment: Fluorescence-based high-throughput DNA polymerase assay (molecular beacon), primary screen and dose-response
Type: biochemical
run-parameters: DRC-2; 5'; concentration 5
Description: The HT assay employs a molecular beacon, a stem-loop DNA template with a Cy3 dye and the Black Hole Quencher on the 3′ and 5′ ends of the DNA, respectively. Pf-apPOL concentration is based on a calculated absorptivity of ε280 = 56750 M^−1 cm^−1. […] To identify apPOL inhibitors we utilised our previously developed high-throughput DNA polymerase assay. […] The assay accurately recapitulates the kinetic behaviour of apPOL, as measured through more conventional low-throughput gel-based assays. […]
reported-endpoint: % inhibition Apo pol 5' (%)
A number alone suffices; assume %.

Answered examples (8):
1. O=[N+]([O-])c1ccc(SCc2ccco2)c2cccnc12 = 33
2. O=C(CSc1nnc(-c2ccncc2)[nH]1)c1ccc(O)c(O)c1 = 49
3. Nc1cc(Oc2ccc(O)c(N)c2)ccc1O = 43
4. Cc1cc(C)nc(Nc2nc(CC(=O)Nc3nc(-c4ccco4)cs3)cs2)n1 = 6
5. CCCCCCCCCCCC1SCC(C(=O)O)N1C(C)=O (stereo not drawn) = 16
6. O=C(Cn1ccc2c(=O)[nH]ccc21)Nc1ccc(Cl)cc1 [Molecule 36, O=C(Cn1ccc2c1cc[nH]c2=O)Nc1ccc(cc1)Cl] = 20
7. O=c1[nH]c2ccc(Br)cc2c(-c2ccccc2)c1C1=NNC(c2ccco2)C1 (stereo not drawn) = 27
8. Cn1nc(-c2nc(-c3ccccc3)no2)c2c1CCN(C(=O)Cc1cccs1)C2 = 10

Now let's try a different one.
Bench note: what % inhibition Apo pol 5' did COc1ccc(C(=O)Nc2cccc(-c3nc4ncccc4o3)c2)cc1[N+](=O)[O-] show?
8
